- target: T1, rhesus ERBB3 on transiently transfected HEK-293 cells (rhesus monkey (Macaca mulatta), UniProt P21860 20-1342 (human entry))
- T1 construct: also called rhesus ERBB3+ HEK-293 cells
- T1 chain: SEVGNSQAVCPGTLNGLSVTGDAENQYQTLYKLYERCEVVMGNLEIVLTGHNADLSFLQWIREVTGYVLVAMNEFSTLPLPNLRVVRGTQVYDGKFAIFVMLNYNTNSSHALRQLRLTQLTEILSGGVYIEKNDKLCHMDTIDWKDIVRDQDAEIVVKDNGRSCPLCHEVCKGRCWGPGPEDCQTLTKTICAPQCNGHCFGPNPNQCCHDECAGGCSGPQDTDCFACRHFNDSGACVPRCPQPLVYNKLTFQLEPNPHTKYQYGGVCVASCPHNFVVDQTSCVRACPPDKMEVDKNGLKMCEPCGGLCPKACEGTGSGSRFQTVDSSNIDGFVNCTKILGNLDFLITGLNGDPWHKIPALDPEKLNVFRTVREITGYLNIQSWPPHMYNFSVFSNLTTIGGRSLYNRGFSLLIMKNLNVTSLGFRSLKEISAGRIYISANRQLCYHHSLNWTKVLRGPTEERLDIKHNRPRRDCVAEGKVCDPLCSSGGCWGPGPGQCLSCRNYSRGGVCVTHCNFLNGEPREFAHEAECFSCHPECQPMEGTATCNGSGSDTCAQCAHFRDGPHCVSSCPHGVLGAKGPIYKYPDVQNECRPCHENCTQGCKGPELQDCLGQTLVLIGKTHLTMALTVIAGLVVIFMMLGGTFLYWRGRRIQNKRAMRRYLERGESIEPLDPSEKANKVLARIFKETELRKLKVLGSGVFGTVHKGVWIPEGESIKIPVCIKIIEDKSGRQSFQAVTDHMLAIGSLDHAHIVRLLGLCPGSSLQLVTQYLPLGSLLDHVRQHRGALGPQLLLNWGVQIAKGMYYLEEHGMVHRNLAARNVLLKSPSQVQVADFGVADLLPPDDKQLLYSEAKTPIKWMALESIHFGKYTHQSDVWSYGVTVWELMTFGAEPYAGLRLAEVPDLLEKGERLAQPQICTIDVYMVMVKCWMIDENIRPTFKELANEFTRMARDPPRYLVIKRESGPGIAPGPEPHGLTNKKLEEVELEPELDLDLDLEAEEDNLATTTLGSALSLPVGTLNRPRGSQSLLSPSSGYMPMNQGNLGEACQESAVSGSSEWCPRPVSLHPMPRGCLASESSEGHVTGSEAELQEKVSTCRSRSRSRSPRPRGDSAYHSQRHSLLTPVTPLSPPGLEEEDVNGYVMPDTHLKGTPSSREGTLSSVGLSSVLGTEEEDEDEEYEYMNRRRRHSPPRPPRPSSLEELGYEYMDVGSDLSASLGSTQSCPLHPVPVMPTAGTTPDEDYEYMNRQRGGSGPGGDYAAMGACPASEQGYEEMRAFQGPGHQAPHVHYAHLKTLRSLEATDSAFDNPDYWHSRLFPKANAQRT
- assay_notes: flow cytometry, rhesus ERBB3-transfected HEK-293
quantity_name: maximum MFI, fold over isotype control background

Solved entries (count: 2):
>>> val("11H02 IgG1null (antibody, V domains shown, Human IgG1null and human Ckappa) VH: QVQLVESGGGLVKPGGSLRLSCAASGFTFSDYGMSWIRQAPGKGLEWVSTISDSGSYTYYADSVKGRFTISRDNAKNSLYLQMNSLRAEDTAVYYCAREWGDYDGFDNWGQGTLVTVSS VL: DIQMTQSPSSLSASVGDRVTITCRASQIISSYLSWYQQKPGKAPKLLIYAASSLDSGVPSRFSGSGSGTDFTLTISSLQPEDFATYYCLQYYSTPLTFGGGTKVEIK")
"> 20 fold"
>>> val("MH5 IgG1null (antibody, V domains shown, Designer (Maximally Humanized) clone; Human IgG1null and human Ckappa) VH: QVQLVESGGGLVKPGGSLRLSCAASGFTFSDYGMSWIRQAPGKGLEWVSTISDSGSTIYYADSVKGRFTISRDNAKNSLYLQMNSLRAEDTAVYYCAREYGDYDGFDYWGQGTLVTVSS VL: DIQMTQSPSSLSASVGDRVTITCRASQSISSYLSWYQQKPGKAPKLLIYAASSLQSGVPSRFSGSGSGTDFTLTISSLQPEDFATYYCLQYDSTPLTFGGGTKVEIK")
"> 20 fold"

Would you kindly look at the next entry?
**Q:** Consider the binder 09D12 IgG1null (antibody, V domains shown, Human IgG1null and human Ckappa) VH: QVQLVESGGGLVKPGGSLRLSCAASGFTFSDYGMSWIRQAPGKGLEWVSTISDGGSYTYYADSVKGRFTISRDNAKNSLYLQMNSLRAEDTAVYYCAREYGDYDGFDYWGQGTLVTVSS VL: DIQMTQSPSSLSASVGDRVTITCRASQSISSYLNWYQQKPGKAPKLLIYAASSLDSGVPSRFSGSGSGTDFTLTISSLQPEDFATYYCLQYDSTPLTFGGGTKVEIK and give its measured maximum MFI, fold over isotype control background.
**A:** > 20 fold
